# target: biotinylated human DLL3 protein expressed as a human IgG1 fusion protein (human) (UniProt Q9NYJ7)
# Sequence (Q9NYJ7 27-492): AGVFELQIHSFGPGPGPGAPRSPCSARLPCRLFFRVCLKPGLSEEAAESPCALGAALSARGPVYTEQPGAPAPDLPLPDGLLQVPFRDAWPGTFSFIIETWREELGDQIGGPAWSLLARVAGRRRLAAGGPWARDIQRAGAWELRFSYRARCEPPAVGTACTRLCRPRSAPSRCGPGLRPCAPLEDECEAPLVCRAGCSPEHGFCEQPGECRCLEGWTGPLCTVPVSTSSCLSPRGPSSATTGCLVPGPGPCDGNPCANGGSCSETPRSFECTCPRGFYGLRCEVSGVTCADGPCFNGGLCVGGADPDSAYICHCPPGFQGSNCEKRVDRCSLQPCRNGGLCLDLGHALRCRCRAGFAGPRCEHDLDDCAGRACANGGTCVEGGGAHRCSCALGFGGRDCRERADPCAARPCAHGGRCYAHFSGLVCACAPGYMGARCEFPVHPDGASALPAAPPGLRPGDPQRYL
# experimental protocol: Octet, biotinylated human DLL3-IgG1 fusion on streptavidin tips, single 50 nM, conditioned medium (relative KD)
Each record here notes measured Kd.

{"binder": "anti-DLL3 trispecific protein, DLL3 binder 3D08 (protein, part only; not given: anti-CD3 fragment and anti-albumin sdAb, part only) chain, part: EVQLVESGGGLVQPGGSLTLSCAASGSSVRFLSMAWYRQAPGKKRELVAGISANGSTDYIDSVKGRFTISRDNAKNSVYLQMNSLRAEDTAVYYCYAYRWTNRYTYWGQGTLVTVSSGGGGSGGGSGGGGSGGGSHHHHHH", "Kd [nM]": 17}
{"binder": "anti-DLL3 trispecific protein, DLL3 binder 3G02 (protein, part only; not given: CD3 binder and albumin binder, part only) chain, part: EVQLVESGGGLVQPGGSLTLSCAASGSSVSFLSMAWYRQAPGKKRELVAGISADGRTDYIDSVKGRFTISRDNAKNSVYLQMNSLRAEDTAVYYCYAYRWRTRYTYWGQGTLVTVSSGGGGSGGGSGGGGSGGGSHHHHHH", "Kd [nM]": 20}
{"binder": "anti-DLL3 trispecific protein, DLL3 binder 3E04 (protein, part only; not given: CD3 fragment and albumin sdAb, part only) chain, part: EVQLVESGGGLVQPGGSLTLSCAASGSSVHFLSMAWYRQAPGKKRELVAGISRDGSTDYIDSVKGRFTISRDNAKNSVYLQMNSLRAEDTAVYYCYAYRWTTRYRYWGQGTLVTVSSGGGGSGGGSGGGGSGGGSHHHHHH", "Kd [nM]": 11}
{"binder": "anti-DLL3 trispecific protein, DLL3 binder 3A010 (protein, part only; not given: anti-CD3 fragment and anti-albumin sdAb, part only) chain, part: EVQLVESGGGLVQPGGSLTLSCAASGSRVSFLSMAWYRQAPGKKRELVAGISADGSTLYIDSVKGRFTISRDNAKNSVYLQMNSLRAEDTAVYYCYAYRWTTRRTYWGQGTLVTVSSGGGGSGGGSGGGGSGGGSHHHHHH", "Kd [nM]": 12}
{"binder": "anti-DLL3 trispecific protein, DLL3 binder 4A06 (protein, part only; not given: anti-CD3 fragment and anti-albumin domain, part only) chain, part: EVQLVESGGGLVQPGGSLTLSCAASGSSVRFLSMAWYRQAPGKKRELVAGISRDGSTDYIDSVKGRFTISRDNAKNSVYLQMNSLRAEDTAVYYCYAYRWTTRRTYWGQGTLVTVSSGGGGSGGGSGGGGSGGGSHHHHHH", "Kd [nM]": 13}
{"binder": "anti-DLL3 trispecific protein, DLL3 binder 2G011 (protein, part only; not given: anti-CD3 fragment and anti-albumin sdAb, part only) chain, part: EVQLVESGGGLVQPGGSLTLSCVASGSTSSINAMGWYRRAPGKQRELPAGISRDGSKVYADSVKGRFTISRDNAKNSVYLQMNSLRAEDTAVYYCYYFRYVSGSSMRYWGQGTLVTVSSGGGGSGGGSGGGGSGGGSHHHHHH", "Kd [nM]": 13}
{"binder": "anti-DLL3 trispecific protein, DLL3 binder 4B05 (protein, part only; not given: anti-CD3 fragment and anti-albumin domain, part only) chain, part: EVQLVESGGGLVQPGGSLTLSCAASGSRVSFLSMAWYRQAPGKKRELVAGISADGHTDYIDSVKGRFTISRDNAKNSVYLQMNSLRAEDTAVYYCYAYRWTTRYTHWGQGTLVTVSSGGGGSGGGSGGGGSGGGSHHHHHH", "Kd [nM]": 18}
